# TARGET SYSTEM: human recombinant serotonin (5-Hydroxytryptamine) 5-HT6 receptor (Homo sapiens)
# Construct: expressed in transfected cells; host or cells: HeLa
# Sequence (P50406 whole entry): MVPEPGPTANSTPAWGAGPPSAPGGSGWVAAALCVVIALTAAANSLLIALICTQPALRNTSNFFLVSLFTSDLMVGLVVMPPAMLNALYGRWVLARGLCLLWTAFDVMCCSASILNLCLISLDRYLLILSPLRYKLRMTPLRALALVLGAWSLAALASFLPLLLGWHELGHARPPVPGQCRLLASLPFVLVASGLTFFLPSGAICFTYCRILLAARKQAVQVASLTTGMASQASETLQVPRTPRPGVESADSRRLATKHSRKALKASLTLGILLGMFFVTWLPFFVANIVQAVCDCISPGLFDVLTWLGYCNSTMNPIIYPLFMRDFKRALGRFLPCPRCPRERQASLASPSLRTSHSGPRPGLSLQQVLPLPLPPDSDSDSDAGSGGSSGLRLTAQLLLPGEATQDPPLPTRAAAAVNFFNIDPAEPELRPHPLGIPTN
# ASSAY DETAILS: Serotonin 5-HT6 radioligand binding ([3H]LSD)
# TEST CONTEXT: compound at 0.1 μM; read-out: Inhibition of ligand binding, Serotonin 5-HT6 (percent inhibition of specific binding)
ENDPOINT: inhibition at 0.1 µM (%)
Expressed in %, but write only the number.

MOLECULE	inhibition at 0.1 µM / %
Cc1csc(-c2ccc(-n3c4c(c5cc(C)ccc53)CN(C)CC4)nc2)c1 [Compound No. 144]	13

Record Cc1ccc2c(c1)c1c(n2-c2cscc2-c2cc3ccccc3s2)CCN(C)C1 [Compound No. 151] . Reported inhibition at 0.1 µM: 28

Record Cc1ccc2c(c1)c1c(n2-c2cccc3ccncc23)CCN(C)C1 [Compound 58] . Reported inhibition at 0.1 µM: 21

Record Cc1ccc2c(c1)c1c(n2-c2cncn2C)CCN(C)C1 [Compound 18] . Reported inhibition at 0.1 µM: 2

Record Cc1ccc2c(c1)c1c(n2-c2ccc3nc(C)ccc3c2)CCN(C)C1 [Compound No. 157] . Reported inhibition at 0.1 µM: 22

Record CNC(=O)c1ccc(-c2ccccc2-n2c3c(c4cc(C)ccc42)CN(C)CC3)cn1 [Compound No. 71] . Reported inhibition at 0.1 µM: -7

Record Cc1ccc2c(c1)c1c(n2-c2cscc2-c2ccc(O)nc2)CCN(C)C1 [Compound 49] . Reported inhibition at 0.1 µM: 6

Record Cc1ccc2c(c1)c1c(n2-c2cscc2-c2cccc3[nH]ncc23)CCN(C)C1 [Compound 41] . Reported inhibition at 0.1 µM: 36
